- Tested on: TK-10
- Assay Overview: NCI tumour cell line growth inhibition, 48 h
The source made the active and inactive calls. No stated cut-off is given here; in the data, active = GI50 up to about 1.1 µM and inactive = higher.

Compound	GI50
COc1cc2c(cc1OCCCN1CCN(C)CC1)N=C[C@@H]1CCCN1C2=O	3.34 µM (inactive)
COc1cc([C@@H]2c3cc4c(cc3[C@@H](OC3OC5COC(C)OC5C(OC(=O)CN5CCN(C)CC5)C3OC(=O)CN3CCN(C)CC3)C3COC(=O)[C@@H]32)OCO4)cc(OC)c1OC(=O)CN1CCN(C)CC1 (stereo not given in full)	> 100 µM (inactive)
O=C(C[C@@H]1NCCC[C@H]1O)Cn1cnc2cc(Br)c(Cl)cc2c1=O	0.0491 µM (active)
O=C1C(=O)N(c2nccs2)C(=O)C(=O)C1c1nc2ccccc2s1	> 100 µM (inactive)
Cc1ccc(Nc2nc(=O)c3c([nH]c4ccccc43)s2)cc1	11.3 µM (inactive)
O=S(=O)(c1cccc(C(F)(F)F)c1)N1c2ccccc2-n2cccc2C1c1cccnc1 (stereo not given)	> 53.8 µM (inactive)
O=P(O)(O)CN1CCNCCN(CP(=O)(O)O)CCNCC1	> 62.2 µM (inactive)
CSc1scc2c1/C(=N/NC(N)=O)CCC2	> 100 µM (inactive)
C=C(c1ccccc1)C1ON(C)CCc2cc(OC)c(OC)cc21 (stereo not given)	> 100 µM (inactive)
CNC(=O)c1nn[nH]c1Sc1c([N+](=O)[O-])ncn1C	> 100 µM (inactive)

----------
- Test system: CAKI-1
- Assay Overview: NCI tumour cell line growth inhibition, 48 h
Active and inactive are the calls of the source. Rule as the data show it: active = GI50 up to about 1.1 µM and inactive = higher.
Classes used: active, inactive

>>> print(df.to_string())
                                    compound  answer_label
 0  COc1ccc(NC=O)c(C(O)CCNC(C)=O)c1 (stereo unspecified)      inactive
 1      COc1cc2c(cc1OC)C(c1ccccc1CCCCl)=NCC2      inactive
 2  CC(=O)O[C@H]1CC[C@]2(C=O)[C@H]3CC[C@]4(C)[C@@H](C5=CC(=O)OC5)CC[C@]4(O)[C@@H]3CC[C@]2(O)C1 [STROPHANTHIDIN ACETATE]        active
 3  O=C1Nc2ccccc2/C1=N/Nc1nc(-c2cccc([N+](=O)[O-])c2)cs1      inactive
 4              O=CNc1ccccc1OCCOc1ccccc1NC=O      inactive
 5  CC(C(O)c1ccccc1)[N+](=O)[O-] (stereo unspecified)      inactive
 6                                O=C1CCCCN1      inactive
 7  O=C1CSC(C(/N=N/c2ccc(Cl)cc2)c2nc3ccccc3[nH]2)=N1 (stereo unspecified)      inactive
 8  CC(=O)OC[C@@]12CC[C@H]3C(C)(C)CCC[C@]3(C)[C@H]1C[C@@H](C1=CC(=O)O[C@H]1O)O2      inactive
 9  COc1ccc(/N=N/c2c(C)c(C#N)c(=S)n(C3OC(CO)C(O)C(O)C3O)c2-c2ccccc2)cc1 (stereo unspecified)      inactive
10  COC1CN(C)/C(=N\c2cccc3ccccc23)S1 (stereo unspecified)      inactive
11  O=c1[nH]c(=O)n(C2OC(COP(=O)(O)OP(=O)(O)OC3OC(CO)C(O)C(O)C3O)C(O)C2O)cc1F (stereo unspecified)        active
12  OCCN(CCO)c1ccc2c(-c3ccccc3)cc(N(CCO)CCO)nc2n1      inactive
13                 Cc1nc(O)c2c3c(sc2n1)CCCC3      inactive
14  CC(C)C1=CC23CCC4C(C)(C(=O)O)CCCC4(C)C2CC1C1C(=O)N(c2ccccc2)C(=O)C13 (stereo unspecified)      inactive
15  CCNC1CC(n2cc(C)c(=O)[nH]c2=O)OC1CO (stereo unspecified)      inactive
16   Cc1ccc(NC(=S)N/N=C2\C(=O)Nc3ccccc32)cc1      inactive
17  O=[N+]([O-])c1ccc2c(c1)c(S(=O)(=O)O)cc1nonc12      inactive
18  CCCCCCCCCCCCC/C=C(/COCC[N+](C)(C)C)OC(C)=O.CCCCCCCCCCCCCC/C(=C/OCC[N+](C)(C)C)OC(C)=O      inactive
19  [O-][N+]1=[N+]([O-])[C@@H](c2ccccc2)[C@H]1c1ccccc1      inactive
20  COC1C(=[N+]=[N-])C(=O)NC(=O)N1C1OC(COC(c2ccccc2)(c2ccccc2)c2ccccc2)C(O)C1O (stereo unspecified)      inactive
